Tested on: A549
Test: Cytotoxicity against human A549 cells assessed as cell viability after 48 hrs
Type: functional, cell-based
Settings: A549, 48 h
Readout Type: IC50
In your response, the unit should come after the numeric value.

Data request: For the compound C/C=C/C(=O)C[C@H]1CC[C@H](C)[C@H](CC(=O)NC[C@H](O)[C@H](C)C(=O)NCCC[C@H]2O[C@@]3(CCC[C@H](CC[C@H](C)/C=C(\C)[C@H](C)O)O3)CC[C@@H]2C)O1 [BISTRAMIDE A] , report IC50.
Data returned: 63 nM

###

Assay: Binding affinity to rabbit skeletal muscle globular actin by isothermal calorimetric method
Type: tissue-based, Oryctolagus cuniculus, Muscle tissue
Readout Type: Kd

Data request: For the compound C/C=C/C(=O)C[C@H]1CC[C@H](C)[C@H](CC(=O)NC[C@H](O)[C@H](C)C(=O)NCCC[C@H]2O[C@@]3(CCC[C@H](CC[C@H](C)/C=C(\C)[C@H](C)O)O3)CC[C@@H]2C)O1 [BISTRAMIDE A] , report Kd.
Data returned: 7 nM

###

Target: Protein kinase C delta type (Homo sapiens, UniProt Q05655)
Sequence (Q05655 whole entry): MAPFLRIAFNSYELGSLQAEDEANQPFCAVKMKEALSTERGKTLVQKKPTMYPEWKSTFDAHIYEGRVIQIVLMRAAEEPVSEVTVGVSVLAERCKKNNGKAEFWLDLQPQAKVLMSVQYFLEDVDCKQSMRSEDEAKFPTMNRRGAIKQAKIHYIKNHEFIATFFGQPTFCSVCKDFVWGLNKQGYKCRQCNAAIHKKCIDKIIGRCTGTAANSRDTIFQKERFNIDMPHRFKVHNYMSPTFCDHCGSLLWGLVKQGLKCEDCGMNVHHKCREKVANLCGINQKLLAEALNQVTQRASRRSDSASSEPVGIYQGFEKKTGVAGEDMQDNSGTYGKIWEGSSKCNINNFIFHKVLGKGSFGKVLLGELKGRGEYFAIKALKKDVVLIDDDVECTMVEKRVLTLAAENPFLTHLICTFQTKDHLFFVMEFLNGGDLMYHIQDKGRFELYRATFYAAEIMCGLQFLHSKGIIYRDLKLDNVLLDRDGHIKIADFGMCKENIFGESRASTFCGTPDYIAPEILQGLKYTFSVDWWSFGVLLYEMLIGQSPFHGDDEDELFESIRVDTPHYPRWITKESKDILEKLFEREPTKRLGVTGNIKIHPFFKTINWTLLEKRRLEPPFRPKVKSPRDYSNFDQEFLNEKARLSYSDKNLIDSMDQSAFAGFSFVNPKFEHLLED
Assay: Displacement of [3H]PDBu from human recombinant PKCdelta by competitive binding assay
Readout Type: Ki (µM)
Give your result in µM as a bare value.

Data request: Give Ki; test system Protein kinase C delta type (Homo sapiens, UniProt Q05655); compound C/C=C/C(=O)C[C@H]1CC[C@H](C)[C@H](CC(=O)NC[C@H](O)[C@H](C)C(=O)NCCC[C@H]2O[C@@]3(CCC[C@H](CC[C@H](C)/C=C(\C)[C@H](C)O)O3)CC[C@@H]2C)O1 [BISTRAMIDE A]
Data returned: 27

###

Assay: Binding affinity to rabbit skeletal muscle monomeric actin by isothermal calorimetric method
Type: tissue-based, Oryctolagus cuniculus, Muscle tissue
Readout Type: Kd (µM)
Give your result in µM as a bare value.

Data request: For the compound `C/C1=C/C(=O)O[C@@H]2C[C@@H](CC[C@H](C)/C=C\C=C\CC1)O[C@@](O)([C@@H]1CSC(=O)N1)C2` , report Kd.
Data returned: 0.17

###

Experiment: Inhibition of actin polymerization
Readout Type: pKd
Reminder that pKd is minus the log10 of a molar concentration.

Data request: For the compound `C/C1=C/C(=O)O[C@@H]2C[C@@H](CC[C@H](C)/C=C\C=C\CC1)O[C@@](O)([C@@H]1CSC(=O)N1)C2` , report pKd.
Data returned: 6.70
